Origin of measurements: patent US20110257176A1

# Tested Target: rabbit reticulocyte 20S proteasome, chymotrypsin-like (CT-L) activity (Oryctolagus cuniculus, UniProt G1T4Q9)
# Sequence (G1T4Q9 1-263): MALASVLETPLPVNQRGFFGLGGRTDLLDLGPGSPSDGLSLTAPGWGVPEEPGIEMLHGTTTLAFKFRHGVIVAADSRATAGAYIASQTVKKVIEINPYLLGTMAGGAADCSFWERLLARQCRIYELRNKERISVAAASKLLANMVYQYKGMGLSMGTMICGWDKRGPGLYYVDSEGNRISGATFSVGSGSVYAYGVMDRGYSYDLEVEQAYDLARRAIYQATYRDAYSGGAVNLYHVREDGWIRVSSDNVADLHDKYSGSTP
pIC50: −log10 of the molar value.
Measured Metric: pIC50

I = COc1ccc(C(=O)NCCc2nnc(SCC(=O)Nc3cc(C)ccc3OC)n2C)cc1 [Compound 22]
II = C=CCOc1ccc(C(=O)N(Cc2nc(-c3ccc(OC)c(OC)c3)no2)C(C)C)cc1 [Compound 19]
III = O=C(Cc1cccc2ccccc12)Nc1cccc(-c2nnc(-c3ccccc3)o2)c1 [Compound 21]
// query Ascending by pIC50, please. Please reply with the labels ordered as requested. Many thanks.
// result III, I, II

====

# Tested Target: rabbit reticulocyte 20S proteasome, chymotrypsin-like (CT-L) activity
# Construct: IC50 on chymotrypsin-like activity; other: rabbit 20S proteasome, pH 8, 37° C; Rabbit erythrocyte 20S proteasome was obtained from Boston Biochem, Cambridge, USA
# Procedure Details: 20S proteasome chymotrypsin-like (CT-L) activity, Suc-LLVY-AMC hydrolysis
# Format: biochemical
# Recorded Conditions: rabbit 20S proteasome, pH 8, 37° C.
Reported IC50 values are given for each entry in this list.
# unit: nM | format: bare number

INSERT INTO assay_data (compound, measured_metric, value_observed) VALUES
  ('COc1ccc(-c2noc(CN(C(=O)COc3ccc(C)cc3)C(C)C)n2)cc1', 'IC50', 710),
  ('Cc1noc(CN(C(=O)COc2ccc(Br)cc2)C(C)C)n1', 'IC50', 12300),
  ('COc1ccc(-c2noc(CN(C(=O)C(C)Oc3ccccc3)C(C)C)n2)cc1 (stereo not shown)', 'IC50', 8050);

// query I have this compound here, `Cc1cccc(-c2noc(CN(C(=O)COc3ccc(Br)cc3)C(C)C)n2)c1` , and I need its recorded IC50.
// result 510
